Test Target: hNK2R (Homo sapiens, UniProt P21452)
Construct: host or cells: COS-7
Sequence (P21452 whole entry): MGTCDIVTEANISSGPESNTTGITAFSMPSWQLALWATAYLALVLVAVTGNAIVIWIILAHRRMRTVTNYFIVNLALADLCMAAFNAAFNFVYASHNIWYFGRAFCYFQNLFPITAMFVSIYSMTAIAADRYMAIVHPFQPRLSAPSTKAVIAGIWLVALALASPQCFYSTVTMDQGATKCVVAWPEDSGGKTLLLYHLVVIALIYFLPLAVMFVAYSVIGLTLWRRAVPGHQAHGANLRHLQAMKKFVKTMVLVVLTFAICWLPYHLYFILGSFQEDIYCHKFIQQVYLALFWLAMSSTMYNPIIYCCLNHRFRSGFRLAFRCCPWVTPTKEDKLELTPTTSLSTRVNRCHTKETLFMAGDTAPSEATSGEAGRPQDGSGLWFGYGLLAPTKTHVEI
Test: Indirect human serum albumin binding by IP3 assay, 0.2% ovalbumin vs 1% HSA
Type: cell-based
Condition: 1% HSA, read-out: hNK2R, Albumin binding EC50 (nM)-1% human serum albumin
Numbered stars: 1 amine (or outer) side, 2 acyl side, 3 side chain; on linkers, the order of the positions; unused ones are H or OH. Square brackets hold non-standard residues; d marks the D form. Peptide text beside a SMILES is read from it. * marks the point of attachment. C18 diacid = O=C(O)CCCCCCCCCCCCCCCCC(=O)*; γGlu = O=C(O)[C@H](CCC(=O)[*:2])N[*:1]; Stearoyl = CCCCCCCCCCCCCCCCCC(=O)*; NMeL = CN[C@@H](CC(C)C)C(=O)O; hSer = N[C@@H](CCO)C(=O)O; Nle = CCCC[C@H](N)C(=O)O; AEEA = NCCOCCOCC(=O)O
For each of the molecules below, state its EC50.
Answers are plain numbers, in nM.

Before answering, review these 3 worked examples.
Molecule | Endpoint Unit | EC50
CCCCCCCCCCCCCCCCCC(=O)N[C@@H](CCC(=O)NCCOCCOCC(=O)NCCOCCOCC(=O)N[C@@H](CC(=O)O)C(=O)N[C@@H](CCCCN)C(=O)N[C@@H](Cc1ccc(O)cc1)C(=O)N[C@H](C(=O)NCC(=O)N(C)[C@@H](CC(C)C)C(=O)N[C@@H](CCOC)C(N)=O)C(C)C)C(=O)O [compound 391, *Asp;Lys;Tyr;Val;Gly;NmLeu;Metox;NH2] ({Stearoyl-γGlu-AEEA-AEEA}-DKYVG[NMeL][hSer](Me)-NH2) | nM | 0.6
CCCC[C@H](NC(=O)[C@H](CC(C)C)N(C)C(=O)CNC(=O)[C@@H](NC(=O)[C@H](Cc1ccc(O)cc1)NC(=O)[C@H](CCCCN)NC(=O)[C@H](CC(=O)O)NC(=O)COCCOCCNC(=O)COCCOCCNC(=O)CC[C@H](NC(=O)CCCCCCCCCCCCCCCCC(=O)O)C(=O)O)C(C)C)C(N)=O [compound 305, *Asp;Lys;Tyr;Val;Gly;NmLeu;Nle;NH2] ({C18 diacid-γGlu-AEEA-AEEA}-DKYVG[NMeL][Nle]-NH2) | nM | 260
CCCCCCCCCCCCCCCCCC(=O)N[C@@H](CCC(=O)NCCOCCOCC(=O)NCCOCCOCC(=O)N[C@@H](CC(=O)O)C(=O)N[C@@H](CCCCN)C(=O)N[C@@H](Cc1ccc(O)cc1)C(=O)N[C@H](C(=O)NCC(=O)N(C)[C@@H](CC(C)C)C(=O)N[C@@H](CCCC)C(N)=O)C(C)C)C(=O)O [compound 390, *Asp;Lys;Tyr;Val;Gly;NmLeu;Nle;NH2] ({Stearoyl-γGlu-AEEA-AEEA}-DKYVG[NMeL][Nle]-NH2) | nM | 0.7

Would you kindly look at the next entry?
**Q:** Entry under review: COCC[C@H](NC(=O)[C@H](CC(C)C)N(C)C(=O)CNC(=O)[C@@H](NC(=O)[C@H](Cc1ccc(O)cc1)NC(=O)[C@H](CCCCN)NC(=O)[C@H](CC(=O)O)NC(=O)COCCOCCNC(=O)COCCOCCNC(=O)CC[C@H](NC(=O)CCCCCCCCCCCCCCCCC(=O)O)C(=O)O)C(C)C)C(N)=O [compound 344, *Asp;Lys;Tyr;Val;Gly;NmLeu;Metox;NH2] ({C18 diacid-γGlu-AEEA-AEEA}-DKYVG[NMeL][hSer](Me)-NH2) . Reported EC50?
**A:** 260

====

For each of the compounds below, state its hNK3, IP3 Efficacy.
Test Target: hNK3R (Homo sapiens, UniProt P29371)
Construct: host or cells: COS-7
Sequence (P29371 whole entry): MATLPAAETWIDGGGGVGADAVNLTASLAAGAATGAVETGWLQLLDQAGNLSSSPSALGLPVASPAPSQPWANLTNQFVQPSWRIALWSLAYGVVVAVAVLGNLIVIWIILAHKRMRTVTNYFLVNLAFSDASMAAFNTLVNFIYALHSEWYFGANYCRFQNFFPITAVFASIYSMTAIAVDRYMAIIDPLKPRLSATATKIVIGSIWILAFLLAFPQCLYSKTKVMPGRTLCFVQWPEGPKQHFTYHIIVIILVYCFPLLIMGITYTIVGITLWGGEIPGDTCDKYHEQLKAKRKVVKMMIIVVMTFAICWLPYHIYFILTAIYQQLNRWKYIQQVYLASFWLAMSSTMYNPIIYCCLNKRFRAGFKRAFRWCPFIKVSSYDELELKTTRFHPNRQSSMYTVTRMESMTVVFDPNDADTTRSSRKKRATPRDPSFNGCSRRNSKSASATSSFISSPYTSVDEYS
Test: IP3 assay (inositol trisphosphate, 3H-myoinositol) in transiently transfected COS-7 cells
Assay type: cell-based
Condition: COS-7 cells; figure legends: percent of 10^-6 M NKA
Numbered stars: 1 amine (or outer) side, 2 acyl side, 3 side chain; on linkers, the order of the positions; unused ones are H or OH. Square brackets hold non-standard residues; d marks the D form. Peptide text beside a SMILES is read from it. * marks the point of attachment. C18 diacid = O=C(O)CCCCCCCCCCCCCCCCC(=O)*; γGlu = O=C(O)[C@H](CCC(=O)[*:2])N[*:1]; Cha = N[C@@H](CC1CCCCC1)C(=O)O; NMeL = CN[C@@H](CC(C)C)C(=O)O; hSer = N[C@@H](CCO)C(=O)O; Nle = CCCC[C@H](N)C(=O)O; AEEA = NCCOCCOCC(=O)O; Aib = CC(C)(N)C(=O)O
Answers are plain numbers, in %.

Quick one: give me hNK3, IP3 Efficacy for each item below, same order please.
1. CC(C)C[C@@H](C(=O)N[C@@H](CC1CCCCC1)C(N)=O)N(C)C(=O)CNC(=O)[C@@H](NC(=O)[C@H](Cc1ccc(O)cc1)NC(=O)[C@H](CCCCN)NC(=O)[C@H](CC(=O)O)NC(=O)COCCOCCNC(=O)COCCOCCNC(=O)CC[C@H](NC(=O)CCCCCCCCCCCCCCCCC(=O)O)C(=O)O)C(C)C [compound 313, *Asp;Lys;Tyr;Val;Gly;NmLeu;cHexAla;NH2] ({C18 diacid-γGlu-AEEA-AEEA}-DKYVG[NMeL][Cha]-NH2)
2. COCC[C@H](NC(=O)[C@H](CC(C)C)N(C)C(=O)CNC(=O)[C@@H](NC(=O)[C@H](Cc1ccc(O)cc1)NC(=O)[C@H](CCCCN)NC(=O)[C@H](CC(=O)O)NC(=O)COCCOCCNC(=O)COCCOCCNC(=O)CC[C@H](NC(=O)CCCCCCCCCCCCCCCCC(=O)O)C(=O)O)[C@@H](C)O)C(N)=O [compound 366, *Asp;Lys;Tyr;Thr;Gly;NmLeu;Metox;NH2] ({C18 diacid-γGlu-AEEA-AEEA}-DKYTG[NMeL][hSer](Me)-NH2)
3. CCCC[C@H](NC(=O)[C@H](CC(C)C)NC(=O)[C@@H](CO)NC(=O)[C@@H](NC(=O)[C@H](Cc1ccccc1)NC(=O)[C@H](CCCCN)NC(=O)[C@H](CC(=O)O)NC(=O)COCCOCCNC(=O)COCCOCCNC(=O)CC[C@H](NC(=O)CCCCCCCCCCCCCCCCC(=O)O)C(=O)O)C(C)C)C(N)=O [compound 385, *Asp;Lys;Phe;Val;dSer;Leu;Nle;NH2] ({C18 diacid-γGlu-AEEA-AEEA}-DKFV[dS]L[Nle]-NH2)
4. COCC[C@H](NC(=O)[C@H](CC(C)C)NC(=O)C(C)(C)NC(=O)[C@@H](NC(=O)[C@H](Cc1ccc(O)cc1)NC(=O)[C@H](CCCCN)NC(=O)[C@H](CC(=O)O)NC(=O)COCCOCCNC(=O)COCCOCCNC(=O)CC[C@H](NC(=O)CCCCCCCCCCCCCCCCC(=O)O)C(=O)O)C(C)C)C(N)=O [compound 394, *Asp;Lys;Tyr;Val;Aib;Leu;Metox;NH2] ({C18 diacid-γGlu-AEEA-AEEA}-DKYV[Aib]L[hSer](Me)-NH2)

**A:**
1. 0
2. 0
3. 0
4. 0

**Q:** Look up hNK3, IP3 Efficacy with hNK3R (Homo sapiens, UniProt P29371) for this compound: CSCC[C@H](NC(=O)[C@H](CC(C)C)N(C)C(=O)CNC(=O)[C@@H](NC(=O)[C@H](Cc1ccccc1)NC(=O)[C@H](CCCCNC(=O)COCCOCCNC(=O)COCCOCCNC(=O)CC[C@H](NC(=O)CCCCCCCCCCCCCCCCC(=O)O)C(=O)O)NC(=O)[C@H](CC(=O)O)NC(C)=O)C(C)C)C(N)=O [compound 301, **Asp;Lys*;Phe;Val;Gly;NmLeu;Met;NH2]
**A:** 85

====

Test Target: hNK3R (Homo sapiens)
Construct: host or cells: COS-7
Test: IP3 assay (inositol trisphosphate, 3H-myoinositol) in transiently transfected COS-7 cells
Type: cell-based
Condition: COS-7 cells; figure legends: percent of 10^-6 M NKA
Numbered stars: 1 amine (or outer) side, 2 acyl side, 3 side chain; on linkers, the order of the positions; unused ones are H or OH. Square brackets hold non-standard residues; d marks the D form. Peptide text beside a SMILES is read from it. * marks the point of attachment. C18 diacid = O=C(O)CCCCCCCCCCCCCCCCC(=O)*; γGlu = O=C(O)[C@H](CCC(=O)[*:2])N[*:1]; NMeL = CN[C@@H](CC(C)C)C(=O)O; Nle = CCCC[C@H](N)C(=O)O; AEEA = NCCOCCOCC(=O)O
Metric: hNK3, IP3 Efficacy

Compound | Test Target | hNK3, IP3 Efficacy
CCCC[C@H](NC(=O)[C@H](CC(C)C)N(C)C(=O)CNC(=O)[C@@H](NC(=O)[C@H](Cc1ccccc1)NC(=O)[C@H](CCCCN)NC(=O)[C@H](CCC(=O)O)NC(=O)COCCOCCNC(=O)COCCOCCNC(=O)CC[C@H](NC(=O)CCCCCCCCCCCCCCCCC(=O)O)C(=O)O)[C@@H](C)O)C(N)=O [compound 397, *Glu;Lys;Phe;Thr;Gly;NmLeu;Nle;NH2] ({C18 diacid-γGlu-AEEA-AEEA}-EKFTG[NMeL][Nle]-NH2) | hNK3R (Homo sapiens) | 0%

Would you kindly look at the next entry?
**Q:** Entry under review: CCCC[C@H](NC(=O)[C@H](CC(C)C)N(C)C(=O)CNC(=O)[C@@H](NC(=O)[C@H](Cc1ccc(O)cc1)NC(=O)[C@H](CCCCN)NC(=O)[C@@H](N)CC(=O)O)C(C)C)C(N)=O [compound 374, Asp;Lys;Tyr;Val;Gly;NmLeu;Nle;NH2] (H-DKYVG[NMeL][Nle]-NH2) . Reported hNK3, IP3 Efficacy?
**A:** 0%
